Source: the NIST ThermoML archive (doi:10.1016/j.fluid.2013.07.012)

Procedure Text: xn = mol fraction of the nth substance listed
Condition Info: 338.15 K; 101 kPa; Liquid; Direct current cell with electrodes; x1 = 0.34
Assign class by electrical conductivity: not lower than 2 S/m means Fulfilled; lower than 2 S/m means Not fulfilled.

Worked examples follow.
- Compound: "C[N+](C)(C)CCO.[Cl-] [choline chloride] + OCC(O)CO"
  Cat: "Not fulfilled"
- Compound: "CCN(CC)CCO.Cl [2-(diethylamino)ethanol hydrochloride] + OCC(O)CO"
  Cat: "Not fulfilled"
- Compound: "C[N+](C)(C)CCO.[Cl-] [choline chloride] + OCCO"
  Cat: "Fulfilled"
- Compound: "CCN(CC)CCO.Cl [2-(diethylamino)ethanol hydrochloride] + OCCO"
  Cat: "Not fulfilled"

Could you now look at the following compound, please?
Reported electrical conductivity at or above 2 S/m? C[P+](c1ccccc1)(c1ccccc1)c1ccccc1.[Br-] [methyltriphenylphosphonium bromide] + OCC(O)CO
Not fulfilled

---

Procedure Text: xn = mol fraction of the nth substance listed
Condition Info: 308.15 K; 101 kPa; Liquid; Direct current cell with electrodes; x1 = 0.34
Quantity: electrical conductivity (S/m)
One number for each entry, in S/m.

Some compounds with recorded electrical conductivity:
- Compound: "CCN(CC)CCO.Cl [2-(diethylamino)ethanol hydrochloride] + OCCO"
  electrical conductivity (S/m): 0.794
- Compound: "CCN(CC)CCO.Cl [2-(diethylamino)ethanol hydrochloride] + OCC(O)CO"
  electrical conductivity (S/m): 0.164
- Compound: "C[N+](C)(C)CCO.[Cl-] [choline chloride] + OCC(O)CO"
  electrical conductivity (S/m): 0.255

Please give electrical conductivity, item by item, for the list that follows.
1. C[N+](C)(C)CCO.[Cl-] [choline chloride] + OCCO
2. C[P+](c1ccccc1)(c1ccccc1)c1ccccc1.[Br-] [methyltriphenylphosphonium bromide] + OCC(O)CO

[1.14, 0.0186]

---

For each entry below, report its electrical conductivity value.
Procedure Text: xn = mol fraction of the nth substance listed
Condition Info: 338.15 K; 101 kPa; Liquid; Direct current cell with electrodes; x1 = 0.2
One number for each entry, in S/m.

Here are 3 compounds together with their reported answers.
- Compound: "C[P+](c1ccccc1)(c1ccccc1)c1ccccc1.[Br-] [methyltriphenylphosphonium bromide] + OCCO"
  Unit Spec: "S/m"
  electrical conductivity: 0.742
- Compound: "C[P+](c1ccccc1)(c1ccccc1)c1ccccc1.[Br-] [methyltriphenylphosphonium bromide] + OCC(O)CO"
  Unit Spec: "S/m"
  electrical conductivity: 0.161
- Compound: "CCN(CC)CCO.Cl [2-(diethylamino)ethanol hydrochloride] + OCCO"
  Unit Spec: "S/m"
  electrical conductivity: 1.88

Entry CCN(CC)CCO.Cl [2-(diethylamino)ethanol hydrochloride] + OCC(O)CO ; electrical conductivity = 0.396

---

Procedure Text: xn = mol fraction of the nth substance listed
Condition Info: 303.15 K; 101 kPa; Liquid; Direct current cell with electrodes; x1 = 0.34
# if measured electrical conductivity < 0.2 S/m: YES  # else: NO

// known answers, use as guide
- Molecule: "C[P+](c1ccccc1)(c1ccccc1)c1ccccc1.[Br-] [methyltriphenylphosphonium bromide] + OCC(O)CO"
  Cat: "YES"
- Molecule: "C[N+](C)(C)CCO.[Cl-] [choline chloride] + OCCO"
  Cat: "NO"
- Molecule: "CCN(CC)CCO.Cl [2-(diethylamino)ethanol hydrochloride] + OCCO"
  Cat: "NO"

Consider now this further molecule.
Quick check: does CCN(CC)CCO.Cl [2-(diethylamino)ethanol hydrochloride] + OCC(O)CO have electrical conductivity under 0.2 S/m?
YES

---

Would you mind telling me the reported log10 electrical conductivity of each entry?
Procedure Text: xn = mol fraction of the nth substance listed
Condition Info: 298.15 K; 101 kPa; Liquid; Direct current cell with electrodes; x1 = 0.34
Log scale reminder: electrical conductivity in S/m, then log10 taken.

Here are 2 compounds together with their reported answers.
- Compound: "C[N+](C)(C)CCO.[Cl-] [choline chloride] + OCCO"
  log10 electrical conductivity: -0.13
- Compound: "C[P+](c1ccccc1)(c1ccccc1)c1ccccc1.[Br-] [methyltriphenylphosphonium bromide] + OCC(O)CO"
  log10 electrical conductivity: -2.21

Provide each entry's log10 electrical conductivity from the list below.
1. CCN(CC)CCO.Cl [2-(diethylamino)ethanol hydrochloride] + OCCO
2. C[N+](C)(C)CCO.[Cl-] [choline chloride] + OCC(O)CO
3. CCN(CC)CCO.Cl [2-(diethylamino)ethanol hydrochloride] + OCC(O)CO

1. -0.29
2. -0.76
3. -1.12

---

Field: electrical conductivity. Provide a value for each of the molecules that follow.
Procedure Text: xn = mol fraction of the nth substance listed
Condition Info: 323.15 K; 101 kPa; Liquid; Direct current cell with electrodes; x1 = 0.2
Give bare numbers, in S/m.

Reference set (3 entries):
- Molecule: "C[P+](c1ccccc1)(c1ccccc1)c1ccccc1.[Br-] [methyltriphenylphosphonium bromide] + OCC(O)CO"
  Quantity: "electrical conductivity"
  Result: 0.0816
- Molecule: "CCN(CC)CCO.Cl [2-(diethylamino)ethanol hydrochloride] + OCC(O)CO"
  Quantity: "electrical conductivity"
  Result: 0.236
- Molecule: "CCN(CC)CCO.Cl [2-(diethylamino)ethanol hydrochloride] + OCCO"
  Quantity: "electrical conductivity"
  Result: 1.34

Noted for C[P+](c1ccccc1)(c1ccccc1)c1ccccc1.[Br-] [methyltriphenylphosphonium bromide] + OCCO : its electrical conductivity reads 0.441

---

Procedure Text: xn = mol fraction of the nth substance listed
Condition Info: 328.15 K; 101 kPa; Liquid; Direct current cell with electrodes; x1 = 0.25
# label = condition met if electrical conductivity >= 0.5 S/m else condition not met

Reference set (4 entries):
- Compound: "CCN(CC)CCO.Cl [2-(diethylamino)ethanol hydrochloride] + OCCO"
  Cat: "condition met"
- Compound: "C[N+](C)(C)CCO.[Cl-] [choline chloride] + OCC(O)CO"
  Cat: "condition not met"
- Compound: "CCN(CC)CCO.Cl [2-(diethylamino)ethanol hydrochloride] + OCC(O)CO"
  Cat: "condition not met"
- Compound: "C[P+](c1ccccc1)(c1ccccc1)c1ccccc1.[Br-] [methyltriphenylphosphonium bromide] + OCCO"
  Cat: "condition not met"

We now examine a further compound.
Check this compound for electrical conductivity at or above 0.5 S/m: C[P+](c1ccccc1)(c1ccccc1)c1ccccc1.[Br-] [methyltriphenylphosphonium bromide] + OCC(O)CO
condition not met

---

Procedure Text: xn = mol fraction of the nth substance listed
Condition Info: 338.15 K; 101 kPa; Liquid; Direct current cell with electrodes; x1 = 0.25
Give electrical conductivity for every item shown.
One number for each entry, in S/m.

Study these solved cases before continuing.
- Compound: "C[P+](c1ccccc1)(c1ccccc1)c1ccccc1.[Br-] [methyltriphenylphosphonium bromide] + OCC(O)CO"
  electrical conductivity (S/m): 0.149
- Compound: "CCN(CC)CCO.Cl [2-(diethylamino)ethanol hydrochloride] + OCCO"
  electrical conductivity (S/m): 1.84

Give electrical conductivity for all compounds that follow.
1. CCN(CC)CCO.Cl [2-(diethylamino)ethanol hydrochloride] + OCC(O)CO
2. C[P+](c1ccccc1)(c1ccccc1)c1ccccc1.[Br-] [methyltriphenylphosphonium bromide] + OCCO
3. C[N+](C)(C)CCO.[Cl-] [choline chloride] + OCC(O)CO

1. 0.492
2. 0.58
3. 0.672

---

Procedure Text: xn = mol fraction of the nth substance listed
Condition Info: 343.15 K; 101 kPa; Liquid; Direct current cell with electrodes; x1 = 0.25
Quantity: electrical conductivity (S/m)
Give bare numbers, in S/m.

See these solved cases before continuing.
- Compound: "C[P+](c1ccccc1)(c1ccccc1)c1ccccc1.[Br-] [methyltriphenylphosphonium bromide] + OCCO"
  electrical conductivity, S/m: 0.692
- Compound: "C[N+](C)(C)CCO.[Cl-] [choline chloride] + OCC(O)CO"
  electrical conductivity, S/m: 0.78
- Compound: "C[P+](c1ccccc1)(c1ccccc1)c1ccccc1.[Br-] [methyltriphenylphosphonium bromide] + OCC(O)CO"
  electrical conductivity, S/m: 0.178
- Compound: "CCN(CC)CCO.Cl [2-(diethylamino)ethanol hydrochloride] + OCCO"
  electrical conductivity, S/m: 1.99

Proceeding to the next compound to report its electrical conductivity.
Per the records, this compound ( CCN(CC)CCO.Cl [2-(diethylamino)ethanol hydrochloride] + OCC(O)CO ) has electrical conductivity equal to 0.575

---

Procedure Text: xn = mol fraction of the nth substance listed
Condition Info: 348.15 K; 101 kPa; Liquid; Direct current cell with electrodes; x1 = 0.34
Quantity: log10(electrical conductivity) (log10 of the value in S/m)
log10 electrical conductivity, S/m

- Compound: "CCN(CC)CCO.Cl [2-(diethylamino)ethanol hydrochloride] + OCCO"
  log10(electrical conductivity): 0.33
- Compound: "CCN(CC)CCO.Cl [2-(diethylamino)ethanol hydrochloride] + OCC(O)CO"
  log10(electrical conductivity): -0.11
- Compound: "C[N+](C)(C)CCO.[Cl-] [choline chloride] + OCCO"
  log10(electrical conductivity): 0.43
- Compound: "C[P+](c1ccccc1)(c1ccccc1)c1ccccc1.[Br-] [methyltriphenylphosphonium bromide] + OCC(O)CO"
  log10(electrical conductivity): -0.74

// C[N+](C)(C)CCO.[Cl-] [choline chloride] + OCC(O)CO : log10(electrical conductivity) value = 0.03
